# credit: the supplement of paper PMC7125110

Consider the following variants and their measured kcat readings.
B1: glmS ribozyme (parent)
chain: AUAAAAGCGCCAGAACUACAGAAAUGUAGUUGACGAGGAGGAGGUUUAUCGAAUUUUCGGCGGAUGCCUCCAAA

# Variants of: B1
# Protocol description: kcat; higher = faster cleavage; RNA array
# Study conditions: with glucosamine-6-phosphate
This sample holds only a part of the variants without activity.

# Sequence content, Qualifying sign, kcat, s⁻¹
data = [
    ("AUAAAAGCGCCAGAACUACAGAAAUGUAGUUGACGAGGAGGAGGUUUCUCGAAUCUUCGGCGGAUGCCUCCAAA [A48C U55C]", "=", 0.000419),
    ("AUAAAAGCGCCAGAACUACAGAAAUGUAGUUGACGAGGAGGAGGUUUAUCGAAUUUUCGGCGGAGGGCUCCAAA [U65G C67G]", "=", 0.00141),
    ("AUAAAAGCUCCAGAACUACAGAAAUGUAGUUGACGAGGAGGGGGUUCAUCGAAUUUUCGGCGGAUGCCUCCAAA [G9U A42G U47C]", "<", "1e-05"),
    ("AUAAAAGCGCCAGAACUACAGAAAUGUAGUUGACGAAGAGGAGGUUUAUCGAAUUUUAGGCGGAUGCCUCCAAA [G37A C58A]", "=", "1.97e-05"),
    ("AUAAAAGCGCCAGAACUACAGAAAUGUAGUUAACGAGGAGGAGGUUUAUCGAAUUUUCGUCGGAUGCCUCCAAA [G32A G60U]", "<", "1e-05"),
    ("AUAAAAGCGCCAGAACUACAGAAAUGUAGUUGACGAGGAGGGGGUUUAUCGAAUUUUCGGCGGUUGCCUCCAAA [A42G A64U]", "=", 0.000207),
    ("AUAAAAGCGCCAGUACUACAGAAAUGUAGUUGUCGAGGAGGGGGUUUAUCGAAUUUUCGGCGGAUGCCUCCAAA [A14U A33U A42G]", "=", "9.54e-05"),
    ("AUAAAAGCGCCAGAACUACAGAAAUGUAGUGGACGAGGAGGAGGUUUAUCGAAUUAUCGGCGGAUGCCUCCAAA [U31G U56A]", "=", 0.00739),
    ("AUAAAAGCGCCAGAACUACAGAAAUGUAGUUGACGAGGAGGAGCUUCAUCGAAUUUUCGGCGGAUGCCUCCAAA [G44C U47C]", "=", "1.4e-05"),
    ("AUAAAAGCGCCAGAACUACAGAAAUGUAGUUGACGAGGAGGAGGUUUAUCGAAUGUUCGGCGGAUUCCUCCAAA [U55G G66U]", "=", 0.00299),
    ("AUAAAAGCGCCAGACCUACAGAAAUGUAGUUGACGAGGAGGAAGUUUAUCGAAUUUUCGGCGGAUGCCUCCAAA [A15C G43A]", "<", "1e-05"),
    ("AUAAAAGCGCCAGAACUACAGAAAUGUAGUUGACGAGGAGGAGGUUUAUCGAAUUUUCGGCGGAUGCCCCCAAA [U69C]", "=", 0.00361),
    ("AUAAAAGCGCCUGAACUACAGAAAUGUAGUUGCCGAGGAGGAGGUUUAUCGAAUUUUCGGCGGAUGCCUCCAAA [A12U A33C]", "=", 0.00204),
    ("AUAAAAGCGUCAGAACUACAGAAAUGUAGUUGACGAGGAGGAGGUUUAUCGAAUUUUCGGCGGAUGCGUUCAAA [C10U C68G C70U]", "=", "7.35e-05"),
    ("AUAAAAGCGCCAGAACUACAGAAAUGUAGUUGACGAGGAGGGGGUUUAUCGAAUUUUCGGCGGAUGCCUGCAAA [A42G C70G]", "=", 0.000261),
    ("AUAAAAGCGCCAGAACUACAGAAAUGUAGGUGACGAGGAGGAGGUUUGUCGAAUUUUCGGCGGAUGCCUCCAAA [U30G A48G]", "<", "1e-05"),
    ("AUAAAAGCGCCAGAACUACAGAAAUGUAGUUGACGAGGUGGAGGUUGAUCGAAUUUUCGGCGGAUGCCUCCAAA [A39U U47G]", "=", 0.00519),
    ("AUAAAAGCGCCAGAACUACAGAAAUGUAGUUGACGAGGAGGAGGUUUAUCGAAUUUUCGGCGGAUUCCUACAAA [G66U C70A]", "=", "7.35e-05"),
    ("AUAAAAGCGCCAUAACUACAGAAAUGUAGUUGACGAGGCGGAGGUUUAUCGAAUUUUCGGCGGAUGCCUCCAAA [G13U A39C]", "=", 0.000234),
    ("AUAAAAGCGCCAGAACUAAAGAAAUGUAGUUGACGAGGAGGAGGUUUAUCGAAUUUUCUGCGGAUGCCUCCAAA [C19A G59U]", "=", 0.000115),
    ("AUAAAAGCGCCAUAACUACAGAAAUGUAGUUGACGAGGAGGAGGUUUAUCAAAUUUUCGGCGGAUGCCUCCAAA [G13U G51A]", "<", "1e-05"),
    ("AUAAAAGCGCCAGCACUACAGAAAUGUAGUUGACGAGGAGGAGGUUUAUCGAAUUAUCGGCGGAUGCCUCCAAA [A14C U56A]", "=", 0.00449),
    ("AUAAAAGCGCCAGAACUACAGAAAUGUAGUUGACGAGGAGGAGGUUUAACGAAUUUUCGGCGGAUGCGUCCAAA [U49A C68G]", "=", "2.5e-05"),
    ("AUAAAAGCGCCAGAACUACAGAAAUGUAGUUGACGAGGAGGAGGUUUCUCGAACUUUCGGCGGAUGCCUCCAAA [A48C U54C]", "=", 0.00042),
    ("AUAAAAGCGCCAGAACUACAGAAAUGUAGUUGACGAGGCGGAGGUUGAUCGAAUUUUCGGCGGAUGCCUCCAAA [A39C U47G]", "=", 0.00107),
    ("AUAAAAGCGCCAGCACUACAGAAAUGUAGUUGUCGAGGAGGAGGUUUAUCGAAUUUUCGGCGGAUGCCUCCAAA [A14C A33U]", "=", "3.55e-05"),
    ("AUAAAAGCGACAGAACUACAGAAAUGUAGAUGACGAGGAGGAGGUUUAUCGAAUUUUCGGCGGAUGCUUCCAAA [C10A U30A C68U]", "=", "7.99e-05"),
    ("AUAAAAGCGCCAGAACUACAGAAAUGUAGUUGACGAGGAGGAGGAUUAUCGAAUUUUCGGCGGAUGCCUCAAAA [U45A C71A]", "=", 0.00337),
    ("AUAAAAGCGCCAGAACUACAGAAAUGUAGUUGACGAGGAGGAGGUCUAUCGAAUUUUCGGCGGAUGCCUCCAAA [U46C]", "=", 0.00387),
    ("AUAAAAGCGCCAGAACUACAGAAAUGUAGUUGACGUGGAGGAGGUUUAUCGAAUUUACGGCGGAUCCCUCCAAA [A36U U57A G66C]", "<", "1e-05"),
    ("AUAAAAGCGCCAGUACUACAGAAAUGUAGUUGACGAGGAGGAGGUUUAUCGAAUUUUCGGCGGUUGCCUCCAAA [A14U A64U]", "=", "1.88e-05"),
    ("AUAAAAGCGCCAGAACUACAGAAAUGUAGUUGACGAGGAGGAGGUUCAUCGAAGUUUCGGCGGAUGCCUCCAAA [U47C U54G]", "=", 0.00375),
    ("AUAAAAGCGCCAGAACUACAGAAAUGUAGUUGACGAGGAGAAGGGUUAUCGAAUUUUCGGCGGAUGCCUCCAAA [G41A U45G]", "=", 0.000391),
    ("AUAAAAGCGCCAGGACUACAGAAAUGUAGUUGACGAGGAGGAGGUUUAUCGAAUUUUCGGCGGACGCCUCCAAA [A14G U65C]", "=", 0.00147),
    ("AUAAAAGCGCCAGAACUACAGAAAUGUAGUUGACGAGGAGGAGGCUUAUCGAAUUUUCGGCGGAUGACUCCAAA [U45C C67A]", "=", 0.00652),
    ("AUAAAAGCGCCAGGACUACAGAAAUGUACUUGACGAGGAGGAGGUUUAUCGAAUUUUCGGCGGAUGCCUCCAAA [A14G G29C]", "=", 0.000331),
    ("AUAAAAGCGCCAGAACUACAGAAAUGUAGUUGACGAGGAGGAGGUUUAUCGAAUUUCCGGCGGAUGCCUACAAA [U57C C70A]", "=", "1.97e-05"),
    ("AUAAAAGCGCCAGAAUUACAGAAAUGUAGAUGACGAGGAAGAGGUUUAUCGAAUUUUCGGCGGAUGCCUCCAAA [C16U U30A G40A]", "=", 0.000118),
    ("AUAAAAGCGCAAGACCUACAGAAAUGUAGUUGACGAGGAGGAGGUUUAUCGAAUUUUCGGCGGAUGCCUCCAAA [C11A A15C]", "=", "7.9e-05"),
    ("AUAAAAGCGCCAGAACUACAGAAAUGUAGUUGACGAGGAGGAGGUUUAUCGAAGUUUCGGCGGAGGCCUCCAAA [U54G U65G]", "=", 0.00368),
    ("AUAAAAGCGCCAGAACUACAGAAAUGUAGUUGACGAGGAGGAGGUAUAUCGAAUUUUCGGCGGCUGCCUCCAAA [U46A A64C]", "=", "4.04e-05"),
    ("AUAAAAGCGCCAGAACUACAGAAAUGUAGUUGACGAGGAGGAGGUAUAUCGAAUUUUCGGCGGAUCCCUCCAAA [U46A G66C]", "=", 0.00211),
    ("AUAAAAGCGCCAGAACUACAGAAAUGUAGUUGACGAGGAAGAGGUUUAUCGAAUUUUCGGCGGAUGCUUCCAAA [G40A C68U]", "=", "5.12e-05"),
    ("AUAAAAGCGCCAGAACUACAGAAAUGUAGUGGACGAGGAGGAGGUAUAUCGAAUUUUCGGCGGAUGCCUCCAAA [U31G U46A]", "=", 0.000771),
    ("AUAAAAGCGCCAGAUCUACAGAAAUGUAGUUGACGAGGGGGAGGUUUAUCGAAUUUUCGGCGGAUGCCUCCAAA [A15U A39G]", "=", 0.00892),
    ("AUAAAAGCGCCAGAGCUACAGAAAUGUACUCGACGAGGUGGAGGUUUAUCGAAUUUUCGGCGGAUGCCUCCAAA [A15G G29C U31C A39U]", "=", 0.000143),
]
